Recorded values, source ChEMBL document CHEMBL2413026.

# protocol: Cytotoxicity against mouse peritoneal macrophages after 72 hrs by MTT assay
# Format: cell-based, Peritoneal macrophage cell
quantity: CC50 at 72 h (µg/mL)
Give the value, in units of µg/mL, as a plain number.

The cases that follow already have their CC50 at 72 h on record.
COc1ccc(C(=O)c2ccccc2)c(O)c1    24.6
CC(C)=CCOc1ccc(C(=O)c2ccccc2)cc1    87.1
COc1ccc(C(=O)c2ccccc2)cc1    28

Find the recorded CC50 at 72 h belonging to CCCCOc1ccc(C(=O)c2ccccc2)c(O)c1 and report it. 40.6

Find the recorded CC50 at 72 h belonging to C[C@@H]1[C@H](O)[C@@H](C)/C=C/C=C/C=C/C=C/C=C/C=C/C=C/[C@H](O[C@@H]2O[C@H](C)[C@@H](O)[C@H](N)[C@@H]2O)C[C@@H]2O[C@](O)(C[C@@H](O)C[C@@H](O)[C@H](O)CC[C@@H](O)C[C@@H](O)CC(=O)O[C@H]1C)C[C@H](O)[C@H]2C(=O)O and report it. 25

----------
# Test system: Leishmania amazonensis
# protocol: Leishmanicidal activity against promastigote form of Leishmania amazonensis MHOM/BR/71973/M2269 after 72 hrs by cell counting
# Assay type: functional, organism-based
# experimental setup: MHOM/BR/71973/M2269, 72 h
quantity: IC50 (µg/mL)
Give the value, in units of µg/mL, as a plain number.

The cases that follow already have their IC50 on record.
O=C(c1ccccc1)c1ccc(O)cc1    40.9
CCCCOc1ccc(C(=O)c2ccccc2)cc1    8.56
COc1ccc(C(=O)c2ccccc2)c(O)c1 [OXYBENZONE]    4.9
CC(C)=CCOc1ccc(C(=O)c2ccccc2)c(O)c1    7.05

Find the recorded IC50 belonging to O=C(c1ccccc1)c1ccc(O)cc1O [2,4-DIHYDROXYBENZOPHENONE] and report it. 29

Find the recorded IC50 belonging to C[C@@H]1[C@H](O)[C@@H](C)/C=C/C=C/C=C/C=C/C=C/C=C/C=C/[C@H](O[C@@H]2O[C@H](C)[C@@H](O)[C@H](N)[C@@H]2O)C[C@@H]2O[C@](O)(C[C@@H](O)C[C@@H](O)[C@H](O)CC[C@@H](O)C[C@@H](O)CC(=O)O[C@H]1C)C[C@H](O)[C@H]2C(=O)O [AMPHOTERICIN B] and report it. 4.7

Find the recorded IC50 belonging to O=C(c1ccc(O)cc1)c1ccc(O)cc1 and report it. 121

Find the recorded IC50 belonging to CCCCOc1ccc(C(=O)c2ccc(OCCCC)cc2)cc1 and report it. 23.8

----------
Below, each of the compounds is paired with its reported CC50 at 72 h value.
# protocol: Cytotoxicity against mouse peritoneal macrophages after 72 hrs by MTT assay
# Format: cell-based, Peritoneal macrophage cell
Give the value, in units of µg/mL, as a plain number.

The cases that follow already have their CC50 at 72 h on record.
CCCCOc1ccc(C(=O)c2ccccc2)cc1    28.9
N=C(N)c1ccc(OCCCCCOc2ccc(C(=N)N)cc2)cc1    3.82

Proceeding to the next compound to report its CC50 at 72 h.
Find the recorded CC50 at 72 h belonging to CC(C)=CCOc1ccc(C(=O)c2ccccc2)c(O)c1 and report it. 140
